Target: ATP-dependent translocase ABCB1 (Homo sapiens, UniProt P08183)
Sequence (P08183 whole entry): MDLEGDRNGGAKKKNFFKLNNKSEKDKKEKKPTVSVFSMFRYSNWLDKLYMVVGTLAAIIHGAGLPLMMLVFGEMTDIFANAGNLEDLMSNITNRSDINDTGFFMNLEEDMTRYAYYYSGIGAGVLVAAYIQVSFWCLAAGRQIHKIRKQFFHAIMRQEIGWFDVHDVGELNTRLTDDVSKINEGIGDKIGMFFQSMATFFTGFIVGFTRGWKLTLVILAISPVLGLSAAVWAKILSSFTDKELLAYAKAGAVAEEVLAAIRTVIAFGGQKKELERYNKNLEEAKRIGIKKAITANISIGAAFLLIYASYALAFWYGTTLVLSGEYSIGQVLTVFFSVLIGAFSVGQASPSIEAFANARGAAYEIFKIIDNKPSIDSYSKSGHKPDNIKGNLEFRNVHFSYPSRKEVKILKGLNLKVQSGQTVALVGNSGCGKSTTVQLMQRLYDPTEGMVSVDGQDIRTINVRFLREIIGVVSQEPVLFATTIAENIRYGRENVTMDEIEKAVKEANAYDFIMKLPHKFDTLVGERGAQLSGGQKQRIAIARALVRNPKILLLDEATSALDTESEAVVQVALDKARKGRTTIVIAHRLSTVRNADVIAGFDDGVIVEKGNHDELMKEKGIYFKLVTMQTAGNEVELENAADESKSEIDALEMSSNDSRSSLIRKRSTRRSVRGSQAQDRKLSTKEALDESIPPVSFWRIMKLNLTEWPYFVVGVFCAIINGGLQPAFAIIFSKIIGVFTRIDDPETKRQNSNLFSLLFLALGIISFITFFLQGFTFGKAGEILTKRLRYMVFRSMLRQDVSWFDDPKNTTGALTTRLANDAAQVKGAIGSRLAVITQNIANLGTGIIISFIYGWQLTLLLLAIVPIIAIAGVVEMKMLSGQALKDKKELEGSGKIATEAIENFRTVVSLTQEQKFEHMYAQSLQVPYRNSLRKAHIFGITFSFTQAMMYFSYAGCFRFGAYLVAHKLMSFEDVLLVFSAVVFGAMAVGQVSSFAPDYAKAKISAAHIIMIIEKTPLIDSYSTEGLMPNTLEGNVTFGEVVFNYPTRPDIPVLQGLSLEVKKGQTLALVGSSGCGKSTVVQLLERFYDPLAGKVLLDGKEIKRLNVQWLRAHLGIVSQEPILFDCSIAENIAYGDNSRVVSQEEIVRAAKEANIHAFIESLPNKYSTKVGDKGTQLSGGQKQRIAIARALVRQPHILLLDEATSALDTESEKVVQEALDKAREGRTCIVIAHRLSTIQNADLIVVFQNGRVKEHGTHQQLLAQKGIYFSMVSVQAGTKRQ
Test: Inhibition of MDR1-mediated rhodamine 123 uptake expressed in mouse L5178Y cells assessed as fluorescence activity ratio at 60 ug/mL after 10 mins by flow cytometry relative to parent cells
Assay type: cell-based
Settings: in the assay text read “60 uM” for “60 ug/mL”
valueKind: Ratio
Would you mind answering with just the numeric figure?

CC(=O)O[C@H]1[C@H](OC(C)=O)/C(C)=C\[C@H]2[C@@H](OC(=O)c3ccccc3)[C@@H](C)C[C@]2(O)[C@@H](OC(C)=O)[C@@H](C)/C=C/C(C)(C)[C@@H]1OC(C)=O (relative stereo)	36.1
CC(=O)O[C@H]1[C@H](OC(C)=O)/C(C)=C\[C@H]2[C@@H](OC(=O)c3ccccc3)[C@@H](C)C[C@]2(OC(C)=O)[C@@H](OC(C)=O)[C@@H](C)/C=C/C(C)(C)[C@@H]1OC(C)=O (relative stereo)	82.2
CC(=O)O[C@@H]1[C@@H](OC(C)=O)C(C)(C)/C=C/[C@H](C)C(=O)[C@@]2(OC(C)=O)C[C@@H](C)[C@H](OC(=O)c3ccccc3)/C2=C/[C@](C)(O)[C@H]1OC(C)=O	43.4

# input for lookup
Hello, I am looking for reported Ratio with ATP-dependent translocase ABCB1 (Homo sapiens, UniProt P08183) for CC(=O)O[C@H]1[C@H](OC(C)=O)/C(C)=C\[C@H]2[C@@H](OC(=O)c3ccccc3)[C@H](C)C[C@]2(O)C(=O)[C@@H](C)/C=C/C(C)(C)[C@@H]1OC(C)=O (relative stereo) . Could you help?
72.9

====

Test: Induction of cell death in human COLO320 cells preincubated at 20 uM for 40 mins measured after 24 hrs using annexin V/propidium iodide staining by flow cytometry
Assay type: functional, COLO 320
The molecules listed here are annotated with their Activity.
Please give a number only; it is taken to be in %.

In the examples that follow, each entry is paired with its recorded Activity.
CC(=O)O[C@H]1[C@H](OC(C)=O)/C(C)=C\[C@H]2[C@@H](OC(=O)c3ccccc3)[C@@H](C)C[C@]2(O)[C@@H](OC(C)=O)[C@@H](C)/C=C/C(C)(C)[C@@H]1OC(C)=O (relative stereo)	1.11
CC(=O)O[C@@H]1[C@@H](OC(C)=O)C(C)(C)/C=C/[C@H](C)C(=O)[C@@]2(OC(C)=O)C[C@@H](C)[C@H](OC(=O)c3ccccc3)/C2=C/[C@](C)(O)[C@H]1OC(C)=O	0.9
CC(=O)O[C@H]1[C@H](OC(C)=O)/C(C)=C\[C@H]2[C@@H](OC(=O)c3ccccc3)[C@H](C)C[C@]2(O)C(=O)[C@@H](C)/C=C/C(C)(C)[C@@H]1OC(C)=O (relative stereo)	0.74

# input for lookup
Report Activity for CC(=O)O[C@H]1[C@H](OC(C)=O)/C(C)=C\[C@H]2[C@@H](OC(=O)c3ccccc3)[C@@H](C)C[C@]2(OC(C)=O)[C@@H](OC(C)=O)[C@@H](C)/C=C/C(C)(C)[C@@H]1OC(C)=O (relative stereo) please.
1.11

====

Biological target: ATP-dependent translocase ABCB1 (Homo sapiens)
Assay: Inhibition of MDR1-mediated rhodamine 123 uptake expressed in human COLO320 cells assessed as fluorescence activity ratio at 20 ug/mL after 10 mins by flow cytometry relative to parent cells
Format: cell-based
Details: in the assay text read “20 uM” for “20 ug/mL”
valueKind: Ratio
Would you mind answering with just the numeric figure?

In the examples that follow, each entry is paired with its recorded Ratio.
CC(=O)O[C@H]1[C@H](OC(C)=O)/C(C)=C\[C@H]2[C@@H](OC(=O)c3ccccc3)[C@@H](C)C[C@]2(O)[C@@H](OC(C)=O)[C@@H](C)/C=C/C(C)(C)[C@@H]1OC(C)=O (relative stereo)	2.8
CC(=O)O[C@H]1[C@H](OC(C)=O)/C(C)=C\[C@H]2[C@@H](OC(=O)c3ccccc3)[C@H](C)C[C@]2(O)C(=O)[C@@H](C)/C=C/C(C)(C)[C@@H]1OC(C)=O (relative stereo)	5.1
CC(=O)O[C@H]1[C@H](OC(C)=O)/C(C)=C\[C@H]2[C@@H](OC(=O)c3ccccc3)[C@@H](C)C[C@]2(OC(C)=O)[C@@H](OC(C)=O)[C@@H](C)/C=C/C(C)(C)[C@@H]1OC(C)=O (relative stereo)	5.5

# input for lookup
Report Ratio for "CC(=O)O[C@@H]1[C@@H](OC(C)=O)C(C)(C)/C=C/[C@H](C)C(=O)[C@@]2(OC(C)=O)C[C@@H](C)[C@H](OC(=O)c3ccccc3)/C2=C/[C@](C)(O)[C@H]1OC(C)=O" please.
3
